assay: Protein binding in human plasma assessed as unbound fraction; assay type: ADME, cell-free
metric: fraction unbound
Simply state the number, no unit and no words.

Return fraction unbound (reported value) for this compound: Cn1cc(Nc2nccc(-c3ccc4c(c3)CN(C3COC3)CC[C@H]4NC(=O)c3cn(C(C)(C)C)nn3)n2)cn1 [BIIB-091]
0.26

###

biological target: UniProt O60331
Sequence (O60331 whole entry): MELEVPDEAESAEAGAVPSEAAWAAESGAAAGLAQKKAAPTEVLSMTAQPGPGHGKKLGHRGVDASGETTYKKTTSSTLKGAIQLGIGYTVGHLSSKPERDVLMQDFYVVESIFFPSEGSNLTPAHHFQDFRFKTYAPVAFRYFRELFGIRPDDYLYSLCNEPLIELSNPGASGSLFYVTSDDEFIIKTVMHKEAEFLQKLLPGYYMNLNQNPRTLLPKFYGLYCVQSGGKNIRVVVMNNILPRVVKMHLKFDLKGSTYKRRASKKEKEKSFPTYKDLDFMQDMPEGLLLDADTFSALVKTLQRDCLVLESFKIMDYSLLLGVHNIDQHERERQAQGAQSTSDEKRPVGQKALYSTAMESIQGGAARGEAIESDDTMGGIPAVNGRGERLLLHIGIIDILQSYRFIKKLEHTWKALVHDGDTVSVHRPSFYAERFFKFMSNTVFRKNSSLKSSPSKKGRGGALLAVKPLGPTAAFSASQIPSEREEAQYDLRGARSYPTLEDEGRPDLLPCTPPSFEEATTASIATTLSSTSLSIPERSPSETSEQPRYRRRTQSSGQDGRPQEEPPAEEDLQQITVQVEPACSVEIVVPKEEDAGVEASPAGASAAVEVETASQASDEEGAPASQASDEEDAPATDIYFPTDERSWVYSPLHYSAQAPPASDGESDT
metric: Kd (µM)
Give the value in µM but do not write µM after it.

Return Kd (reported value) for this molecule: "Cn1cc(Nc2nccc(-c3ccc4c(c3)CN(C3COC3)CC[C@H]4NC(=O)c3cn(C(C)(C)C)nn3)n2)cn1"
0.42

###

assay: Cmax in Beagle dog at 5 mg/kg, po; assay type: ADME, organism-based, Canis lupus familiaris; design: route oral, dose 5 mg/kg; conditions: in vivo
metric: Cmax (ng/mL)
Give the value in ng/mL but do not write ng/mL after it.

Return Cmax (reported value) for this compound: "CC(C)OC1CN(C(=O)N[C@@H]2CCCCc3cc(-c4ccnc(Nc5cnn(C)c5)n4)ccc32)C1"
3710

###

experiment: Kinetic aqueous solubility of the compound in pH 6.8; format: physicochemical; details: read-out: Kinetic_solubility
solubility kinetic reference

Return solubility kinetic (reported value) for this compound: "Cn1cc(Nc2nccc(-c3ccc4c(c3)CN(C3COC3)CC[C@H]4NC(=O)c3cn(C(C)(C)C)nn3)n2)cn1"
> 50 µg/mL

Return solubility kinetic (reported value) for this compound: "Cn1cc(Nc2nccc(-c3ccc4c(c3)CCCC[C@H]4NC(=O)c3cn(C(C)(C)C)nn3)n2)cn1"
< 20 µg/mL

Return solubility kinetic (reported value) for this compound: "CC(C)OC1CN(C(=O)NCc2ccc(-c3ccnc(Nc4cnn(C)c4)n3)cc2C(F)(F)F)C1"
< 10 µg/mL

Return solubility kinetic (reported value) for this compound: "Cn1cc(Nc2nccc(-c3ccc4c(c3)CCCC[C@H]4NC(=O)c3nnc(C(C)(C)C)o3)n2)cn1"
< 20 µg/mL

###

experiment: Volume of distribution at steady state in Beagle dog at 1 mg/kg, iv; type: ADME, organism-based, Canis lupus familiaris; conditions: in vivo, read-out: Vdss
metric: Vd (L/kg)
Give the value in L/kg but do not write L/kg after it.

Return Vd (reported value) for this molecule: "CC(C)OC1CN(C(=O)N[C@@H]2CCCCc3cc(-c4ccnc(Nc5cnn(C)c5)n4)ccc32)C1"
1.6

###

assay: Kinetic aqueous solubility of the compound in pH 6.8; format: physicochemical; details: read-out: Kinetic_solubility
metric: solubility kinetic

# example entries with known answers
{"smiles.entry": "Cn1cc(Nc2nccc(-c3ccc4c(c3)CCCC[C@H]4NC(=O)c3nc(C(C)(C)C)no3)n2)cn1", "solubility kinetic": "< 20 µg/mL"}
{"smiles.entry": "CN1CC[C@@H](NC(=O)c2cn(C(C)(C)C)nn2)c2ccc(-c3ccnc(Nc4cnn(C)c4)n3)cc2C1", "solubility kinetic": "> 50 µg/mL"}
{"smiles.entry": "CC(C)OC1CN(C(=O)NCc2ccc(-c3ccnc(Nc4cnn(C)c4)n3)cc2Cl)C1", "solubility kinetic": "< 30 µg/mL"}

// below: solubility kinetic requested for another molecule
Return solubility kinetic (reported value) for this molecule: "Cn1cc(Nc2nccc(-c3ccc4c(c3)CNCC[C@H]4NC(=O)c3cn(C(C)(C)C)nn3)n2)cn1"
> 50 µg/mL
